- system.name: CXCL12 (Homo sapiens)
assay.readout: Kd

Please fill in: Kd reported for O=C(O)CSc1nc(SCC(=O)O)nc(C2C3CC4CC(C3)CC2C4)n1 (stereo not shown) = > 1.6 mM
